// provenance: patent US20080214577A1

Parameter IC50, tested on UniProtKB P56817, listed per item.
Sequence (P56817 22-460): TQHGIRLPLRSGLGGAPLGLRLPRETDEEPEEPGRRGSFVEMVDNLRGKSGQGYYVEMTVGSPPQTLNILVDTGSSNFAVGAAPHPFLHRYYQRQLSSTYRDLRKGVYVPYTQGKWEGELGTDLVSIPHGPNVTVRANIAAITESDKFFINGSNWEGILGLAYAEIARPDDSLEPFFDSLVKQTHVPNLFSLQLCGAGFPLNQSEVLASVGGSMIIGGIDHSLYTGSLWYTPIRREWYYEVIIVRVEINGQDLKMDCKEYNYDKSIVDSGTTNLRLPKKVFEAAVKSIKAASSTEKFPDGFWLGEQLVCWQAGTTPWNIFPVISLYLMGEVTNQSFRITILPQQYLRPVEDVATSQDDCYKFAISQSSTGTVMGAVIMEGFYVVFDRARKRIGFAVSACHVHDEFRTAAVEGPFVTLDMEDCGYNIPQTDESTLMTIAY
Answers are plain numbers, in nM.

Solved cases (2 shown):
                                   compound  reportedendpoint  val
0  COc1cncc(-c2cccc(C3(c4ccncc4)N=C(N)N4CC(F)(F)CN=C43)c2)c1 (stereo not drawn) [Example 43, acetate]              IC50   41
1  COc1ccc(C2(c3ccc(F)c(-c4cccnc4F)c3)N=C(N)N3CC(F)(F)CN=C32)cc1C (stereo not drawn) [Example 87, acetate]              IC50   41

Okay, here is my list. What is IC50 for each of these?
1. COc1ccc(C2(c3cccc(-c4cncnc4)c3)N=C(N)N3CC(OC)CN=C32)cc1 (mixture of isomers)
2. COc1ccc(C2(c3cccc(-c4cncc(OC)c4)c3)N=C(N)N3CC(F)(F)CN=C32)cc1 (stereo not drawn)
3. COc1ccc(C2(c3ccc(F)c(-c4cncnc4)c3)N=C(N)N3CC(F)(F)CN=C32)cc1C (stereo not drawn)
4. NC1=NC(c2ccncc2)(c2cccc(-c3cncc(F)c3)c2)C2=NCC(F)(F)CN12 (stereo not drawn) [Example 47, acetate]

Response line:
[571, 30, 92, 59]
